System: TXK
settings: concentration: 1 μM,replicates: in singlicate; n = 1;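 also: KINOMEscan kinase panel screen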
I'd be grateful if you could share measured %Inh for these entries.
Provide the reading as a plain figure in %.

Q) What value of %Inh has been reported for the following molecule? O=C(NCCNc1ccnc(NCc2ccc(F)cc2)n1)c1cc2ccccc2s1 [GSK1379944]
A) 11

Q) Next: Cl.Cl.Nc1nc(-c2ccc3c(N)n[nH]c3c2)cc(N2CCCC(NC(=O)c3ccccc3)C2)n1 (stereo not shown) [GSK2286775]
A) 100

Q) One more molecule: CN(C)CC(O)COc1ccc(Nc2nccc(-c3cnn4nc(N5CCOCC5)ccc34)n2)cc1 (stereo not shown) [GW767488]
A) 3

Q) Could you do the same for Cc1ccc(-n2nc(C(C)(C)C)cc2NC(=O)Nc2ccc(OCCN3CCOCC3)c3ccccc23)cc1 [GW839464] , please?
A) 13

Q) Also need CC(C)Nc1cc(-c2ccc3c(N)n[nH]c3c2)nc(N)n1 [GSK2221681] , thanks.
A) 0

Q) Now the molecule CNC(=O)c1ccccc1Sc1ccc2c(/C=C/c3ccccn3)n[nH]c2c1
A) 0

Q) Same for Cc1n[nH]c2ccc(-c3cc(OC[C@@H](N)Cc4ccccc4)cnc3-c3ccoc3)cc12.O=C(O)C(F)(F)F.O=C(O)C(F)(F)F [GSK507358]
A) 0

Q) Consider next the molecule O=C(NCCCN1CCOC1=O)c1cnc(NCc2cc(Cl)ccc2Cl)nc1NC1CCCC1 in the same way.
A) 17

Q) Same thing, different molecule: Cc1cc(C(=O)Nc2ccc(Oc3ccc4nc(NC(=O)C5CC5)cn4n3)cc2)nn1-c1ccccc1
A) 22

Q) How about Nc1nc(Nc2ccccc2)cc(-c2ccc3c(N)n[nH]c3c2)n1 [GSK2225749] ?
A) 0

Q) Same for Cl.Cl.NC[C@H](Cc1ccc(C(F)(F)F)cc1)NC(=O)c1cc(Br)c(-c2ccnc3[nH]ccc23)s1 [GSK1487252]
A) 0

Q) Let us now turn to Cc1cc2cn[nH]c2cc1-c1cccc2c(N)c(C(N)=O)nnc12
A) 95.4

Q) Also Cc1occc1-c1nc(N)c(OC[C@@H](N)Cc2c[nH]c3ccccc23)cc1-c1cc2c(C)n[nH]c2cn1 [GSK1660450] , if possible.
A) 43

###

I'd appreciate it if you could supply %Inh values for the items below.
Test system: SRC
settings: concentration: 1 μM,replicates: in singlicate; n = 1

Q) What value of %Inh has been recorded for this entry: Cc1n[nH]c2ccc(-c3cc(OC[C@@H](N)Cc4ccccc4)cnc3-c3ccoc3)cc12.O=C(O)C(F)(F)F.O=C(O)C(F)(F)F [GSK507358]
A) 10%

Q) Also Cl.Cl.NC[C@H](Cc1ccc(C(F)(F)F)cc1)NC(=O)c1cc(Br)c(-c2ccnc3[nH]ccc23)s1 [GSK1487252] ?
A) 0%

Q) Same question for CCn1c(-c2nonc2N)nc2c(C#CC(C)(C)O)nc(OCCN)cc21.Cl.Cl [GSK902056] please.
A) 0%

Q) Next compound up: Cl.Cl.Nc1nc(-c2ccc3c(N)n[nH]c3c2)cc(N2CCCC(NC(=O)c3ccccc3)C2)n1 (stereo not drawn) [GSK2286775]
A) 0%

Q) Request: CN(C)CCOc1ccc(-c2cc(-c3c[nH]nc3-c3ccccn3)ccn2)cc1 [GW835314]
A) 20%

Q) What do you have for CC(C)Nc1cc(-c2ccc3c(N)n[nH]c3c2)nc(N)n1 [GSK2221681] ?
A) 0%

Q) Another compound to look at: C=CC(=O)Nc1cc2c(Nc3ccc(F)c(Cl)c3)ncnc2cc1OCCCN1CCOCC1 [GW781483]
A) 71%

Q) Continue with Cl.Oc1cc(-c2nc(-c3ccccc3)[nH]c2-c2ccncc2)ccc1Cl [SB-386023]
A) 88%

Q) Continue with COc1ccc(C[C@@H](CN)NC(=O)c2cc(Br)c(-c3ccnc4[nH]ccc34)s2)cc1.Cl.Cl [GSK1389063]
A) 36%

Q) Would you kindly repeat that for Cc1cc2cn[nH]c2cc1-c1cccc2c(N)c(C(N)=O)nnc12 ?
A) 17%

Q) Query O=C(NCCCN1CCOC1=O)c1cnc(NCc2cc(Cl)ccc2Cl)nc1NC1CCCC1 next
A) 11%

Q) Another compound: Cc1ccc(-n2nc(C(C)(C)C)cc2NC(=O)Nc2ccc(OCCN3CCOCC3)c3ccccc23)cc1 [GW839464]
A) 0%
